// values below are reported herbicidal rate, Chenopodium album
test system: Chenopodium album; assay: Test Example 3: herbicidal effect test by treatment of dry field farming soil (one day after seeding); assay type: in vivo; details: 120 g/10a active ingredient, evaluated 14 days after treatment
metric: herbicidal rate, Chenopodium album (%)

molecule: Cc1c(Cc2cccc(Cl)c2NS(=O)(=O)C(F)(F)F)c(=O)on1C(C)C
reported.value: 40

molecule: CCCCC(c1ccccc1)n1oc(=O)c(Cc2ccccc2NS(=O)(=O)C(F)(F)F)c1C (centres unmarked)
reported.value: 90

molecule: Cc1c(Cc2ccccc2NS(=O)(=O)C(F)(F)F)c(=O)on1CCCc1ccccc1
reported.value: 40

molecule: COC(=O)N(c1ccccc1Cc1c(C)n(CC(C)C)oc1=O)S(=O)(=O)C(F)(F)F
reported.value: 90

molecule: CCCC(C)n1oc(=O)c(Cc2ccccc2N(S(=O)(=O)C(F)(F)F)S(=O)(=O)C(F)(F)F)c1C (centres unmarked)
reported.value: 40

molecule: Cc1c(Cc2ccccc2NS(=O)(=O)C(F)(F)F)c(=O)on1C(C)Cc1ccccc1 (centres unmarked)
reported.value: 40

molecule: COCC(C)n1oc(=O)c(Cc2ccccc2N(C(=O)C2CCCCC2)S(=O)(=O)C(F)(F)F)c1C (centres unmarked)
reported.value: 90

molecule: Cc1c(Cc2ccccc2NS(=O)(=O)C(F)(F)F)c(=O)on1CC(C)c1ccccc1 (centres unmarked)
reported.value: 40

----------
// values below are reported Herbicidal rate (%) Echinochloa crus-galli
test system: Echinochloa crus-galli; experiment: Test Example 2: herbicidal effect test by treatment during growing period in paddy rice cultivation (seven days after seeding); format: in vivo; conditions: 120 g/10a active ingredient, assessed 14 days after treatment, dry weight vs untreated area
metric: Herbicidal rate (%) Echinochloa crus-galli

molecule: Cc1c(Cc2ccccc2N(S(=O)(=O)C(F)(F)F)S(=O)(=O)C(F)(F)F)c(=O)on1C(C)C1CC1 (stereo not shown)
reported.value: 90

molecule: Cc1c(Cc2ccccc2N(S(=O)(=O)C(F)(F)F)S(=O)(=O)C(F)(F)F)c(=O)on1C(C)C
reported.value: 90

molecule: CSCCn1oc(=O)c(Cc2ccccc2N(C(=O)OCC(C)C)S(=O)(=O)C(F)(F)F)c1C
reported.value: 90

molecule: CCn1oc(=O)c(Cc2ccccc2NS(=O)(=O)C(F)(F)F)c1C
reported.value: 80

molecule: Cc1c(Cc2ccccc2NS(=O)(=O)C(F)(F)F)c(=O)on1Cc1ccc(C#N)cc1
reported.value: 60

molecule: CCNC(=O)N(c1ccccc1Cc1c(C)n(C(C)c2ccccc2)oc1=O)S(=O)(=O)C(F)(F)F (stereo not shown)
reported.value: 90

molecule: Cc1c(Cc2ccccc2N(C(=O)CC(C)C)S(=O)(=O)C(F)(F)F)c(=O)on1CC(C)C
reported.value: 100

----------
test system: Echinochloa crus-galli; assay: Test Example 2: herbicidal effect test by treatment during growing period in paddy rice cultivation (seven days after seeding); type: in vivo; settings: 120 g/10a active ingredient, assessed 14 days after treatment, dry weight vs untreated area
metric: Herbicidal rate (%) Echinochloa crus-galli

compound: CCCC(C)n1oc(=O)c(Cc2ccccc2N(C(=O)C2CC2)S(=O)(=O)C(F)(F)F)c1C (stereo not shown)
reported.value: 90

compound: CCOC(=O)N(c1ccccc1Cc1c(C)n(CC(C)C)oc1=O)S(=O)(=O)C(F)(F)F
reported.value: 90

compound: CCCC(C)n1oc(=O)c(Cc2ccccc2N(C(=O)CC(C)C)S(=O)(=O)C(F)(F)F)c1C (stereo not shown)
reported.value: 100

compound: Cc1c(Cc2ccccc2NS(=O)(=O)C(F)(F)F)c(=O)on1Cc1ccccc1
reported.value: 70

compound: CSCCn1oc(=O)c(Cc2ccccc2N(C(=O)C(C)C)S(=O)(=O)C(F)(F)F)c1C
reported.value: 90

compound: Cc1c(Cc2ccccc2N(S(=O)(=O)C(F)(F)F)S(=O)(=O)C(F)(F)F)c(=O)on1Cc1ccc(Cl)cc1
reported.value: 70

compound: Cc1c(Cc2ccccc2NS(=O)(=O)C(F)(F)F)c(=O)on1CC1(C)CC1
reported.value: 90

compound: Cc1c(Cc2ccccc2N(S(=O)(=O)C(F)(F)F)S(=O)(=O)C(F)(F)F)c(=O)on1CC(C)(C)C
reported.value: 90

compound: Cc1c(Cc2ccccc2NS(=O)(=O)C(F)(F)F)c(=O)on1CCc1ccccc1
reported.value: 90

compound: Cc1c(Cc2ccccc2N(C(=O)C2CCCCC2)S(=O)(=O)C(F)(F)F)c(=O)on1C(C)(C)C
reported.value: 90

compound: CCC(C)CCn1oc(=O)c(Cc2ccccc2N(S(=O)(=O)C(F)(F)F)S(=O)(=O)C(F)(F)F)c1C (stereo not shown)
reported.value: 100

compound: Cc1c(Cc2ccccc2NS(=O)(=O)C(F)(F)F)c(=O)on1CCCc1ccccc1
reported.value: 60

compound: Cc1c(Cc2ccccc2NS(=O)(=O)C(F)(F)F)c(=O)on1C(C)c1ccc(Cl)cc1 (stereo not shown)
reported.value: 60

compound: CCC(=O)N(c1ccccc1Cc1c(C)n(C(C)c2ccccc2)oc1=O)S(=O)(=O)C(F)(F)F (stereo not shown)
reported.value: 90

compound: CCC(C)Cn1oc(=O)c(Cc2ccccc2N(C(C)=O)S(=O)(=O)C(F)(F)F)c1C (stereo not shown)
reported.value: 100

compound: CCCC(CC)n1oc(=O)c(Cc2ccccc2NS(=O)(=O)C(F)(F)F)c1C (stereo not shown)
reported.value: 100

compound: CCC(C)n1oc(=O)c(Cc2ccccc2N(C(=O)Oc2ccccc2)S(=O)(=O)C(F)(F)F)c1C (stereo not shown)
reported.value: 90

compound: Cc1c(Cc2ccccc2NS(=O)(=O)C(F)(F)F)c(=O)on1CC1CC1
reported.value: 90

compound: Cc1c(Cc2ccccc2NS(=O)(=O)C(F)(F)F)c(=O)on1S(=O)(=O)C(C)C
reported.value: 50

compound: Cc1c(Cc2ccccc2NS(=O)(=O)C(F)(F)F)c(=O)on1C(C)Cc1ccccc1 (stereo not shown)
reported.value: 90

compound: Cc1ccc(C(C)n2oc(=O)c(Cc3ccccc3NS(=O)(=O)C(F)(F)F)c2C)cc1 (stereo not shown)
reported.value: 90

compound: COC(=O)N(c1ccccc1Cc1c(C)n(CCSC)oc1=O)S(=O)(=O)C(F)(F)F
reported.value: 90

compound: Cc1c(Cc2ccccc2NS(=O)(=O)C(F)(F)F)c(=O)on1C(C)c1ccsc1 (stereo not shown)
reported.value: 50

compound: C=CCn1oc(=O)c(Cc2ccccc2N(S(=O)(=O)C(F)(F)F)S(=O)(=O)C(F)(F)F)c1C
reported.value: 90

compound: COCCn1oc(=O)c(Cc2ccccc2NS(=O)(=O)C(F)(F)F)c1C
reported.value: 90

compound: Cc1c(Cc2ccccc2NS(=O)(=O)C(F)(F)F)c(=O)on1CC1CCCO1 (stereo not shown)
reported.value: 90

compound: CC(C)c1c(Cc2ccccc2NS(=O)(=O)C(F)(F)F)c(=O)on1C(C)C
reported.value: 40

compound: CCC(C)Cn1oc(=O)c(Cc2ccccc2N(S(C)(=O)=O)S(=O)(=O)C(F)(F)F)c1C (stereo not shown)
reported.value: 90

compound: Cc1c(Cc2ccccc2N(C(=O)Oc2ccccc2)S(=O)(=O)C(F)(F)F)c(=O)on1C(C)c1ccccc1 (stereo not shown)
reported.value: 90

compound: C=CCOC(=O)N(c1ccccc1Cc1c(C)n(C(C)c2ccccc2)oc1=O)S(=O)(=O)C(F)(F)F (stereo not shown)
reported.value: 90

compound: CCCC(C)n1oc(=O)c(Cc2ccccc2N(S(=O)(=O)C(F)(F)F)S(=O)(=O)C(F)(F)F)c1C (stereo not shown)
reported.value: 100
